Target: Mutant CD33-GFP M11 (L78T) on 293FT cells (UniProt P20138)
Sequence (P20138 18-364 L78T): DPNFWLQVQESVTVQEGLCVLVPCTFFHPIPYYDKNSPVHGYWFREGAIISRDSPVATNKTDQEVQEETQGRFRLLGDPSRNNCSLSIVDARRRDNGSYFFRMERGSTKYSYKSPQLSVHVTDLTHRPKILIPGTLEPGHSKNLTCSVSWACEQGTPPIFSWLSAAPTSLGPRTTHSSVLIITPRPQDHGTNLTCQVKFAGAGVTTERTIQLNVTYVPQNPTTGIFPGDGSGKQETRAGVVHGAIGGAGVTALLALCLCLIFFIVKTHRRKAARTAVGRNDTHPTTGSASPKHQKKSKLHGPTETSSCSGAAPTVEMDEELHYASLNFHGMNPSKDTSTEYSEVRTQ
Test: FACS, mutant CD33-GFP on 293FT cells
Readout: FACS binding data

# Binder, Value
measured = [
    ("sdCD33_4 (VHH) VHH: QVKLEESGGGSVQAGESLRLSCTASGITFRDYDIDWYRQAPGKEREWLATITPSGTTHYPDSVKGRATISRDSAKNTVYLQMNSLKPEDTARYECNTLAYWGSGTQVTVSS", 62.8),
    ("sdCD33_2 (VHH) VHH: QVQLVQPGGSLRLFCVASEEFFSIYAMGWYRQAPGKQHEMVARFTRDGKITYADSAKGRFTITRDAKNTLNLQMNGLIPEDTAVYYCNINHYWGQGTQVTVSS", 33.4),
    ("sdCD33_9 (VHH, sdAb from a naive llama phage library; also called 426; sdAb426) VHH: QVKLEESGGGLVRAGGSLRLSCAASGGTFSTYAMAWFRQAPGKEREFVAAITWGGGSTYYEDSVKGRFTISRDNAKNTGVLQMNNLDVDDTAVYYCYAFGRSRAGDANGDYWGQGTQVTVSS", 77.8),
    ("sdCD33_11 (VHH, sdAb from a naive llama phage library; also called 430; sdAb430) VHH: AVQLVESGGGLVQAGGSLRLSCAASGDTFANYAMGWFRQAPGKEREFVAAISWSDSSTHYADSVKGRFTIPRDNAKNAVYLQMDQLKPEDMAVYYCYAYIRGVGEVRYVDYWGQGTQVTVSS", 73.8),
    ("sdCD33_3 (VHH) VHH: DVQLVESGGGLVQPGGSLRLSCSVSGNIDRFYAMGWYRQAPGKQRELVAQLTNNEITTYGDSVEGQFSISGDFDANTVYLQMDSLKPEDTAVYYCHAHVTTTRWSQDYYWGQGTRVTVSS", 78),
    ("sdCD33_7 (VHH, sdAb from a naive llama phage library; also called 420; sdAb420) VHH: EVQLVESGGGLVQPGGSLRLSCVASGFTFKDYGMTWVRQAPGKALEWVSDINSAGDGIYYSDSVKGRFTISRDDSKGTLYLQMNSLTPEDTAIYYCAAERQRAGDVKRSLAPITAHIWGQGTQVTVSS", 72.4),
    ("sdCD33_8 (VHH, sdAb from a naive llama phage library; also called 424; sdAb424) VHH: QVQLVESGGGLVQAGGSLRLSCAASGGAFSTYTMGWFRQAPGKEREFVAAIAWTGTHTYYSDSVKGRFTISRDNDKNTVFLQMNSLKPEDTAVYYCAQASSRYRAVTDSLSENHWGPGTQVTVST", 65.9),
    ("sdCD33_6 (VHH, sdAb from a naive llama phage library; also called 416; sdAb416) VHH: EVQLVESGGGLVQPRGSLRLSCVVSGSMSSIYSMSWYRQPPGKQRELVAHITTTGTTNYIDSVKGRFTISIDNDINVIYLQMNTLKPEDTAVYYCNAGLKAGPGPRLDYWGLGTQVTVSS", 45.1),
    ("sdCD33_10 (VHH) VHH: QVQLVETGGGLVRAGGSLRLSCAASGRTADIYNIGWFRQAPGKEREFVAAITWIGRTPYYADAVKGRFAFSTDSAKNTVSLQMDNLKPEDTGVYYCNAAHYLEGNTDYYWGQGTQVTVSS", 67.3),
    ("sdCD33_5 (VHH, sdAb from a naive llama phage library; also called 413; sdAb413) VHH: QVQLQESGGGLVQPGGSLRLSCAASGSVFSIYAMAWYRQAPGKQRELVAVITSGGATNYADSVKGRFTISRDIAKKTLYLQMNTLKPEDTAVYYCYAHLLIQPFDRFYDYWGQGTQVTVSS", 58.5),
]
